# System: H 3211 NSLC cells
# Procedure summary: IC50 of continuous and pulsed exposure to SDC-TRAPs
# Type: cell-based
# Details: 72 h, read-out: IC50, 72 h-continuous, H 3211 NSLC cells, 7.5 × 10^3 cells/well; 1st of 3 columns

Compound | Measurement units | IC50
CC(C)c1cc(-c2nnc(O)n2-c2ccc3c(ccn3CCN(C)C(=O)NCC(=O)Nc3cccc4c3CN(C3CCC(=O)NC3=O)C4=O)c2)c(O)cc1O (centres unmarked) | nM | 431
CCc1c2c(nc3ccc(OCC(=O)NCCn4ccc5cc(-n6c(O)nnc6-c6cc(C(C)C)c(O)cc6O)ccc54)cc13)-c1cc3c(c(=O)n1C2)COC(=O)C3(O)CC (centres unmarked) | nM | 59
CC(C)c1cc(-c2nnc(O)n2-c2ccc3c(ccn3CCN(C)C(=O)c3ccc(CCc4c[nH]c5nc(N)[nH]c(=O)c45)cc3)c2)c(O)cc1O | nM | 209
CCc1c2c(nc3ccc(OCC(=O)N(C)CCOCCn4ccc5cc(-n6c(O)nnc6-c6cc(C(C)C)c(O)cc6O)ccc54)cc13)-c1cc3c(c(=O)n1C2)COC(=O)C3(O)CC (centres unmarked) | nM | 468
CCc1c2c(nc3ccc(O)cc13)-c1cc3c(c(=O)n1C2)COC(=O)C3(CC)OC(=O)CCCNC(=O)c1cc2cc(-n3c(O)nnc3-c3cc(C(C)C)c(O)cc3O)ccc2n1C (centres unmarked) | nM | 76
CCc1c2c(nc3ccc(OC(=O)N(C)CCOCCn4ccc5cc(-n6c(O)nnc6-c6cc(C(C)C)c(O)cc6O)ccc54)cc13)-c1cc3c(c(=O)n1C2)COC(=O)C3(O)CC (centres unmarked) | nM | 79
CC(C)c1cc(-c2nnc(O)n2-c2ccc3c(ccn3CCOCCNC(=O)c3ccc(CCc4c[nH]c5nc(N)[nH]c(=O)c45)cc3)c2)c(O)cc1O | nM | 587
CC(C)c1cc(-c2nnc(O)n2-c2ccc3c(ccn3CCN(C)C(=O)CCCC(=O)Nc3cccc4c3CN(C3CCC(=O)NC3=O)C4=O)c2)c(O)cc1O (centres unmarked) | nM | 287
